System: differentiated THP1 macrophages (WT)
assayConditions: Table S3; THP-1, 12 h
Counter-ions that a name gives are not always drawn.
propertyName: SOD2 FC

>>> result("COC(=O)/C=C/C(=O)OC [DMF, dimethyl fumarate]")
"0,19 fold"
>>> result("Cc1cc2c(cc1C(CC(=O)O)c1ccc3ccc(OCC(=O)NC4CCCCCC4)cc3c1)OCCO2 (stereo not drawn)")
"0,68 fold"
>>> result("COc1cc([C@@H](CC(=O)O)c2ccc(C)c(CN3C[C@@H](C)Oc4ccccc4S3(=O)=O)c2)cc2nnn(C)c12")
"0,87 fold"
>>> result("COC(=O)[C@]12CCC(C)(C)C[C@H]1[C@H]1C(=O)C=C3[C@@]4(C)C=C(C#N)C(=O)C(C)(C)[C@@H]4CC[C@@]3(C)[C@]1(C)CC2")
"0,36 fold"
>>> result("Cc1cc2c(cc1C(CC(=O)O)c1ccc3ccc(OCC(=O)NC4CCCCCC4)cc3c1)OCO2 (stereo not drawn)")
"0,59 fold"
>>> result("C[S+]([O-])CCCCN=C=S (stereo not drawn)")
"0,40 fold"
